- subject of test: Human DYRK1B (Homo sapiens, UniProt Q9Y463)
- Construct: purchased Invitrogen PR8350B (former PV4649)
- Sequence (Q9Y463 whole entry): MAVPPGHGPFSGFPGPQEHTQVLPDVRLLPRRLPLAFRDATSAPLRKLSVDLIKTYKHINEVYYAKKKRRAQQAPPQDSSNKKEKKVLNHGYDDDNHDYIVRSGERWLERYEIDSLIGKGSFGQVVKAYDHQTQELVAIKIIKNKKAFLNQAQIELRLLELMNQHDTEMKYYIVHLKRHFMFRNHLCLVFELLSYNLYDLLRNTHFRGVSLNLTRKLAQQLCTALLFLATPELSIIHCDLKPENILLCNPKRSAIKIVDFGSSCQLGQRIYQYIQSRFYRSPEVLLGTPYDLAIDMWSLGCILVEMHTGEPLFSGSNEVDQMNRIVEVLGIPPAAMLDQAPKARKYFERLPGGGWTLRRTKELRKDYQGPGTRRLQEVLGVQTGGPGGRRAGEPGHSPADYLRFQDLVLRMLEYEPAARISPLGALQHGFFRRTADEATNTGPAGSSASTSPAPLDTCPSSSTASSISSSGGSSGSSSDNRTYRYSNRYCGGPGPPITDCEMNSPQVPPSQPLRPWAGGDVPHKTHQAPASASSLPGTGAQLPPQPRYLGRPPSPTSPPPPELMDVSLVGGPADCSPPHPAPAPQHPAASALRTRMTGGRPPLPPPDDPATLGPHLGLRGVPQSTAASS
- assay method text: DYRK1B Kinase TR-FRET (IMAP-Tb) Assay
- Type: biochemical
- test settings: TR-FRET (IMAP-Tb); ATP 70 μM; 37° C. 60 minutes; read-out: Enzyme IC50 (μM) DYRK1B
Structures can show the parent of a compound that is named as a salt.
A collection of compounds and their measured IC50
Report the value in µM with no unit label.

COC(=O)c1ccc(Cl)c(NC(=O)c2cc3cnc(NCC(O)CO)nc3[nH]c2=O)c1 (stereo not shown) [Example 38]: 0.08
COC(=O)c1ccc(Cl)c(NC(=O)c2cc3cnc(N4CCNCC4)nc3[nH]c2=O)c1 [Example 37]: 0.405
CN1CCN(c2ncc3cc(C(=O)Nc4cc(C(=O)NCc5cccc(F)c5)ccc4Cl)c(=O)[nH]c3n2)CC1 [Example 177]: 0.176
COc1ncc2cc(C(=O)Nc3cc(C(=O)NCc4ccncc4)ccc3Cl)c(=O)[nH]c2n1 [Example 68]: 0.261
COc1ncc2cc(C(=O)Nc3cc(C(=O)N(C)Cc4ccccc4)ccc3Cl)c(=O)[nH]c2n1 [Example 60]: 0.357

Query :: Record request: IC50 value, item CN1CCN(CCCNc2ncc3cc(C(=O)Nc4cc(C(=O)NC(CN)c5ccccc5)ccc4Cl)c(=O)[nH]c3n2)CC1 (stereo not shown) [Example 123, hydrochloride]
Result :: 0.0082
